Could you please report measured pH at which a precipitate formed for the items listed next?
- ASSAY_SUMMARY: precipitation on gradual pH adjustment of the aqueous solution
- Type: physicochemical
- COND: addition of N/10 sodium hydroxide solution to aqueous solution of hydrochloride
Give bare numbers.

Sample answers from the record:
>  <MOLECULE>
C[C@H]1[C@H]2Cc3ccccc3[C@]1(C)CCN2CC1CCCC1 (relative stereo)

>  <REPORTED_MEASUREMENT>
6.3

$$$$
>  <MOLECULE>
CC[C@]12CCN(CC3CC3)[C@H](Cc3ccccc31)[C@@H]2C (relative stereo)

>  <REPORTED_MEASUREMENT>
6.5

$$$$
>  <MOLECULE>
C[C@H]1[C@H]2Cc3ccccc3[C@]1(C)CCN2CC1CC(C)(C)C1 (relative stereo)

>  <REPORTED_MEASUREMENT>
6.8

$$$$

We next turn to a different molecule, shown below.
q: Tell me pH at which a precipitate formed reported for C[C@H]1[C@H]2Cc3ccccc3[C@]1(C)CCN2C(=O)c1cccnc1 (relative stereo)
a: 3.0

---

- ASSAY_SUMMARY: acute toxicity, rat
- COND: in vivo, iv, I.V., 24 hr., read-out: LD50 ± s.e.
METRIC_NAME: LD50 at 24 h (mg/kg)
Numbers only, in mg/kg.

q: Tell me LD50 at 24 h reported for C[C@H]1[C@H]2Cc3ccccc3[C@]1(C)CCN2CC1CC1 (relative stereo)
a: 17

---

- ASSAY_SUMMARY: precipitation on diluting ethyl alcohol solution with four volumes of water
- Format: physicochemical
- COND: 5 percent (w/v) solution in 95 percent ethyl alcohol
METRIC_NAME: precipitation on dilution with four volumes of water

>  <COMPOUND>
C[C@H]1[C@H]2Cc3ccccc3[C@]1(C)CCN2CC1CC(C)(C)C1 (relative stereo)

>  <REPORTED_MEASUREMENT>
a precipitate formed

$$$$
>  <COMPOUND>
C[C@H]1[C@H]2Cc3ccccc3[C@]1(C)CCN2CC1CC1 (relative stereo)

>  <REPORTED_MEASUREMENT>
a precipitate formed

$$$$

---

- ASSAY_SUMMARY: acute toxicity, mouse
- COND: in vivo, po, P.O., 24 hr.
METRIC_NAME: LD50 at 24 h
The number alone won't do; follow it with the unit.

q: Tell me LD50 at 24 h reported for C[C@H]1[C@H]2Cc3ccccc3[C@]1(C)CCN2CC1CC1 (relative stereo)
a: 155 mg/kg

---

- ASSAY_SUMMARY: acute toxicity, rat
- COND: in vivo, po, P.O., 24 hr., read-out: ALD50
METRIC_NAME: LD50 at 24 h (mg/kg)
Give bare numbers, in mg/kg.

q: Tell me LD50 at 24 h reported for C[C@H]1[C@H]2Cc3ccccc3[C@]1(C)CCN2CC1CC1 (relative stereo)
a: 200

---

- ASSAY_SUMMARY: solubility in water or aqueous acid
- COND: water
Structures can show the parent of a compound that is named as a salt.
METRIC_NAME: solubility (mg/mL)
Answers are plain numbers, in mg/mL.

>  <COMPOUND>
C[C@H]1[C@H]2Cc3ccccc3[C@]1(C)CCN2CC1CC(C)(C)C1 (relative stereo)

>  <METRIC_NAME>
solubility

>  <REPORTED_MEASUREMENT>
5

$$$$
>  <COMPOUND>
COC(CN1CC[C@@]2(C)c3ccccc3C[C@@H]1[C@@H]2C)OC (relative stereo)

>  <METRIC_NAME>
solubility

>  <REPORTED_MEASUREMENT>
200

$$$$
>  <COMPOUND>
CC[C@]12CCN(CC3CC3)[C@H](Cc3ccccc31)[C@@H]2C (relative stereo)

>  <METRIC_NAME>
solubility

>  <REPORTED_MEASUREMENT>
200

$$$$
>  <COMPOUND>
C[C@H]1[C@H]2Cc3ccccc3[C@]1(C)CCN2CC1CCCC1 (relative stereo)

>  <METRIC_NAME>
solubility

>  <REPORTED_MEASUREMENT>
10

$$$$
>  <COMPOUND>
C[C@H]1[C@H]2Cc3ccccc3[C@]1(C)CCN2CCC(=O)O (relative stereo) [Example 24, hydrochloride]

>  <METRIC_NAME>
solubility

>  <REPORTED_MEASUREMENT>
100

$$$$

We next turn to a different compound, shown below.
q: Tell me solubility reported for CC[C@H]1[C@H]2Cc3ccccc3[C@]1(C)CCN2C (relative stereo)
a: 50

---

- ASSAY_SUMMARY: pH of solution
- Type: physicochemical
- COND: 1 percent solution (Example 26 as dihydrochloride, Example 32 as such, others as hydrochloride)
Counter-ions that a name gives are not always drawn.
Classify by measured pH of 1 percent aqueous solution: fulfilled if it is equal to or exceeds 6, not fulfilled if it is smaller.

Some entries whose results are on file:
>  <MOLECULE>
C[C@H]1[C@H]2Cc3ccccc3[C@]1(C)CCN2CC1CCCC1 (relative stereo)

>  <QUALITATIVE_LABEL>
fulfilled

$$$$
>  <MOLECULE>
CC[C@]12CCN(CC3CC3)[C@H](Cc3ccccc31)[C@@H]2C (relative stereo)

>  <QUALITATIVE_LABEL>
not fulfilled

$$$$
>  <MOLECULE>
C[C@H]1[C@H]2Cc3ccccc3[C@]1(C)CCN2CCCN (relative stereo)

>  <QUALITATIVE_LABEL>
fulfilled

$$$$
>  <MOLECULE>
C[C@H]1[C@H]2Cc3ccccc3[C@]1(C)CCN2C(=O)c1cccnc1 (relative stereo)

>  <QUALITATIVE_LABEL>
not fulfilled

$$$$
>  <MOLECULE>
C[C@H]1[C@H]2Cc3ccccc3[C@]1(C)CCN2CCC(=O)O (relative stereo) [Example 24, hydrochloride]

>  <QUALITATIVE_LABEL>
not fulfilled

$$$$

q: Check the entry CC[C@H]1[C@H]2Cc3ccccc3[C@]1(C)CCN2C (relative stereo) : does pH of 1 percent aqueous solution equal or exceed 6?
a: fulfilled

q: Check the entry CCCCNC(=O)N1CC[C@@]2(C)c3ccccc3C[C@@H]1[C@@H]2C (relative stereo) : does pH of 1 percent aqueous solution equal or exceed 6?
a: fulfilled

---

- ASSAY_SUMMARY: solubility in 95 percent ethyl alcohol
- COND: 95% ethanol, organic solvent or mixture
METRIC_NAME: solubility (mg/mL)
Answers are plain numbers, in mg/mL.

Sample answers from the record:
>  <MOLECULE>
C[C@H]1[C@H]2Cc3ccccc3[C@]1(C)CCN2Cc1cncn1C (relative stereo)

>  <RESULT_UNITS>
mg/mL

>  <solubility>
50

$$$$
>  <MOLECULE>
C[C@H]1[C@H]2Cc3ccccc3[C@]1(C)CCN2CC1CC(C)(C)C1 (relative stereo)

>  <RESULT_UNITS>
mg/mL

>  <solubility>
50

$$$$

We next turn to a different molecule, shown below.
q: Tell me solubility reported for C[C@H]1[C@H]2Cc3ccccc3[C@]1(C)CCN2CC1CCCO1 (stereo partly shown)
a: 50

---

- ASSAY_SUMMARY: acute toxicity, rat
- COND: in vivo, po, P.O., 7 day, read-out: ALD50
METRIC_NAME: LD50 at 168 h
The number alone won't do; follow it with the unit.

q: Tell me LD50 at 168 h reported for C[C@H]1[C@H]2Cc3ccccc3[C@]1(C)CCN2CC1CC1 (relative stereo) [Example 1A]
a: 200 mg/kg

---

- ASSAY_SUMMARY: acute toxicity, mouse
- COND: in vivo, iv, I.V., 7 day
METRIC_NAME: LD50 at 168 h (mg/kg)
Give bare numbers, in mg/kg.

q: Tell me LD50 at 168 h reported for C[C@H]1[C@H]2Cc3ccccc3[C@]1(C)CCN2CC1CC1 (relative stereo)
a: 20

---

- ASSAY_SUMMARY: acute toxicity, rat
- COND: in vivo, iv, I.V., 7 day, read-out: LD50 ± s.e.
METRIC_NAME: LD50 at 168 h (mg/kg)
One number for each entry, in mg/kg.

q: Tell me LD50 at 168 h reported for C[C@H]1[C@H]2Cc3ccccc3[C@]1(C)CCN2CC1CC1 (relative stereo) [Example 1A]
a: 17

---

- ASSAY_SUMMARY: acute toxicity, mouse
- COND: in vivo, iv, I.V., 24 hr.
METRIC_NAME: LD50 at 24 h (mg/kg)
Give bare numbers, in mg/kg.

q: Tell me LD50 at 24 h reported for C[C@H]1[C@H]2Cc3ccccc3[C@]1(C)CCN2CC1CC1 (relative stereo) [Example 1A]
a: 20

---

- ASSAY_SUMMARY: solubility in water or aqueous acid
- COND: water
Could you please report measured solubility for the items listed next?

>  <MOLECULE>
C[C@@H]1[C@H]2Cc3ccccc3[C@]1(C)CCN2CC1CC1 (relative stereo)

>  <solubility>
< 2.5 mg/mL

$$$$
>  <MOLECULE>
C[C@H]1[C@H]2Cc3ccccc3[C@]1(C)CCN2C(=O)c1cccnc1 (relative stereo)

>  <solubility>
200 mg/mL

$$$$
>  <MOLECULE>
CC(C)=CCN1CC[C@@]2(C)c3ccccc3C[C@@H]1[C@@H]2C (relative stereo)

>  <solubility>
200 mg/mL

$$$$
>  <MOLECULE>
C[C@H]1[C@H]2Cc3ccccc3[C@]1(C)CCN2Cc1cncn1C (relative stereo)

>  <solubility>
< 2.5 mg/mL

$$$$
>  <MOLECULE>
CCCCNC(=O)N1CC[C@@]2(C)c3ccccc3C[C@@H]1[C@@H]2C (relative stereo)

>  <solubility>
200 mg/mL

$$$$

q: Tell me solubility reported for C[C@H]1[C@H]2Cc3ccccc3[C@]1(C)CCN2CCCN (relative stereo)
a: 200 mg/mL
